Recorded values, source ChEMBL document CHEMBL5550184.

system: GTPase KRas (Homo sapiens), P01116 [G12D]; assay: Binding affinity to biotinylated KRAS G12D mutant (unknown origin) assessed as Kon incubated for 120 mins by SPR analysis
Sequence (P01116 whole entry G12D, looked up): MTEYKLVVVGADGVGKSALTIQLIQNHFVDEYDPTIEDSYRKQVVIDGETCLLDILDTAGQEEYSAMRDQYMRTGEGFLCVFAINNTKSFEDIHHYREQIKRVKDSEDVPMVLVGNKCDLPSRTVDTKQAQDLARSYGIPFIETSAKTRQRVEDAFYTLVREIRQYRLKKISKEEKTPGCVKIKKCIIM
Positions of bridges follow the written chain, without caps; N, C: chain ends. Non-standard residues stand in square brackets, D forms with d. Residues, ends and D or L forms follow the SMILES beside them. *: point of attachment. hPhe(3-Cl-4-CF3) = N[C@@H](CCc1ccc(C(F)(F)F)c(Cl)c1)C(=O)O; NMeCha = CN[C@@H](CC1CCCCC1)C(=O)O; NEtLeu = CCN[C@@H](CC(C)C)C(=O)O; NMeChg = CN[C@H](C(=O)O)C1CCCCC1; NMeD = CN[C@@H](CC(=O)O)C(=O)O; Piperidide = C1CCN(*)CC1; Ac5c = NC1(C(=O)O)CCCC1; Sar = CNCC(=O)O
quantity-kind: K

Input: Name the recorded K for CC[C@H](C)[C@@H]1NC(=O)[C@H](CC(C)C)N(CC)C(=O)C[C@@H](C(=O)N2CCCCC2)N(C)C(=O)[C@H](C2CCCCC2)N(C)C(=O)C2(CCCC2)NC(=O)[C@@H]2CCCN2C(=O)[C@H](CCc2ccc(C(F)(F)F)c(Cl)c2)NC(=O)CN(C)C(=O)[C@H](CC2CCCCC2)N(C)C(=O)CN(C)C(=O)CN(C)C1=O ([NEtLeu]I[Sar][Sar][NMeCha][Sar][hPhe(3-Cl-4-CF3)]P[Ac5c][NMeChg][NMeD]-Piperidide; lactam N-11) .
Output: 2.1 10^5/Ms

---

Items are presented alongside their recorded K.
test system: GTPase KRas (Homo sapiens), P01116 [G12D]; test: Binding affinity to biotinylated KRAS G12D mutant (unknown origin) assessed as Koff incubated for 120 mins by SPR analysis
Positions of bridges follow the written chain, without caps; N, C: chain ends. Non-standard residues stand in square brackets, D forms with d. Residues, ends and D or L forms follow the SMILES beside them. *: point of attachment. hPhe(3-Cl-4-CF3) = N[C@@H](CCc1ccc(C(F)(F)F)c(Cl)c1)C(=O)O; NMeCha = CN[C@@H](CC1CCCCC1)C(=O)O; NMeChg = CN[C@H](C(=O)O)C1CCCCC1; NMeT = CN[C@H](C(=O)O)[C@@H](C)O; NMeD = CN[C@@H](CC(=O)O)C(=O)O; NMeL = CN[C@@H](CC(C)C)C(=O)O; NMeAc5c = CNC1(C(=O)O)CCCC1; NMeA = CN[C@@H](C)C(=O)O; Piperidide = C1CCN(*)CC1; Ac5c = NC1(C(=O)O)CCCC1; Sar = CNCC(=O)O

INSERT INTO assay_data (molecule, assay_result) VALUES
  ('CC[C@H](C)[C@@H]1NC(=O)[C@H](CC(C)C)N(C)C(=O)C[C@@H](C(=O)N2CCCCC2)N(C)C(=O)[C@H](C2CCCCC2)N(C)C(=O)C2(CCCC2)NC(=O)[C@@H]2CCCN2C(=O)[C@H](CCc2ccc(C(F)(F)F)c(Cl)c2)NC(=O)CN(C)C(=O)[C@H](CC2CCCCC2)N(C)C(=O)CN(C)C(=O)CN(C)C1=O ([NMeL]I[Sar][Sar][NMeCha][Sar][hPhe(3-Cl-4-CF3)]P[Ac5c][NMeChg][NMeD]-Piperidide; lactam N-11)', '2.5 10^-4/s'),
  ('CC[C@H](C)[C@@H]1NC(=O)[C@H](C)N(C)C(=O)C[C@@H](C(=O)N2CCCCC2)N(C)C(=O)[C@H](C2CCCCC2)N(C)C(=O)C2(CCCC2)NC(=O)[C@@H]2CCCN2C(=O)[C@H](CCc2ccc(C(F)(F)F)c(Cl)c2)NC(=O)CN(C)C(=O)[C@H](CC2CCCCC2)N(C)C(=O)CN(C)C(=O)CN(C)C1=O ([NMeA]I[Sar][Sar][NMeCha][Sar][hPhe(3-Cl-4-CF3)]P[Ac5c][NMeChg][NMeD]-Piperidide; lactam N-11)', '1.7 10^-4/s'),
  ('CC[C@H](C)[C@@H]1NC(=O)[C@H]([C@@H](C)O)N(C)C(=O)C[C@@H](C(=O)N2CCCCC2)N(C)C(=O)[C@H](C2CCCCC2)N(C)C(=O)C2(CCCC2)NC(=O)[C@@H]2CCCN2C(=O)[C@H](CCc2ccc(C(F)(F)F)c(Cl)c2)NC(=O)CN(C)C(=O)[C@H](CC2CCCCC2)N(C)C(=O)CN(C)C(=O)CN(C)C1=O ([NMeT]I[Sar][Sar][NMeCha][Sar][hPhe(3-Cl-4-CF3)]P[Ac5c][NMeChg][NMeD]-Piperidide; lactam N-11)', '2.7 10^-4/s');

As a next step, examine the molecule that follows.
Input: Give recorded K with GTPase KRas (Homo sapiens), P01116 [G12D] for the following molecule: CC[C@H](C)[C@@H]1NC(=O)C2(CCCC2)N(C)C(=O)C[C@@H](C(=O)N2CCCCC2)N(C)C(=O)[C@H](C2CCCCC2)N(C)C(=O)C2(CCCC2)NC(=O)[C@@H]2CCCN2C(=O)[C@H](CCc2ccc(C(F)(F)F)c(Cl)c2)NC(=O)CN(C)C(=O)[C@H](CC2CCCCC2)N(C)C(=O)CN(C)C(=O)CN(C)C1=O ([NMeAc5c]I[Sar][Sar][NMeCha][Sar][hPhe(3-Cl-4-CF3)]P[Ac5c][NMeChg][NMeD]-Piperidide; lactam N-11)
Output: 2.4 10^-4/s

---

target: GTPase KRas (Homo sapiens, UniProt P01116, G12D); assay: Binding affinity to biotinylated KRAS G12D mutant (unknown origin) incubated for 120 mins by SPR analysis
Positions of bridges follow the written chain, without caps; N, C: chain ends. Non-standard residues stand in square brackets, D forms with d. Residues, ends and D or L forms follow the SMILES beside them. *: point of attachment. hPhe(3-Cl-4-CF3) = N[C@@H](CCc1ccc(C(F)(F)F)c(Cl)c1)C(=O)O; NMeGly(cPent) = CN[C@H](C(=O)O)C1CCCC1; NMeCha = CN[C@@H](CC1CCCCC1)C(=O)O; NMeChg = CN[C@H](C(=O)O)C1CCCCC1; NMeD = CN[C@@H](CC(=O)O)C(=O)O; NMeL = CN[C@@H](CC(C)C)C(=O)O; NMehSer = CN[C@@H](CCO)C(=O)O; NMeAc5c = CNC1(C(=O)O)CCCC1; NMeNva = CCC[C@H](NC)C(=O)O; Azetidin(1-yl) = C1CN(*)C1; Morpholide = C1CN(*)CCO1; NMeA = CN[C@@H](C)C(=O)O; Piperidide = C1CCN(*)CC1; Ac5c = NC1(C(=O)O)CCCC1; Aze = O=C(O)[C@@H]1CCN1; Sar = CNCC(=O)O
Could you mark each record met if its Kd falls strictly under 300 pM, and not met if it equals or exceeds it?

INSERT INTO measurements (compound, class_label) VALUES
  ('CC[C@H](C)[C@@H]1NC(=O)[C@H](CC(C)C)N(C)C(=O)C[C@@H](C(=O)N2CCCCC2)N(C)C(=O)[C@H](C2CCCC2)N(C)C(=O)C2(CCCC2)NC(=O)[C@@H]2CCCN2C(=O)[C@H](CCc2ccc(C(F)(F)F)c(Cl)c2)NC(=O)CN(C)C(=O)[C@H](CC2CCCCC2)N(C)C(=O)[C@@H]2CCN2C(=O)[C@H](C)N(C)C1=O ([NMeL]I[NMeA][Aze][NMeCha][Sar][hPhe(3-Cl-4-CF3)]P[Ac5c][NMeGly(cPent)][NMeD]-Piperidide; lactam N-11)', 'not met');

Input: Item CC[C@H](C)[C@@H]1NC(=O)[C@H](CCO)N(C)C(=O)C[C@@H](C(=O)N2CCCCC2)N(C)C(=O)[C@H](C2CCCCC2)N(C)C(=O)C2(CCCC2)NC(=O)[C@@H]2CCCN2C(=O)[C@H](CCc2ccc(C(F)(F)F)c(Cl)c2)NC(=O)CN(C)C(=O)[C@H](CC2CCCCC2)N(C)C(=O)CN(C)C(=O)CN(C)C1=O ([NMehSer]I[Sar][Sar][NMeCha][Sar][hPhe(3-Cl-4-CF3)]P[Ac5c][NMeChg][NMeD]-Piperidide; lactam N-11) : Kd beneath 300 pM, strictly?
Output: met

Input: Lookup CC[C@H](C)[C@@H]1NC(=O)[C@H](CC(C)C)N(C)C(=O)C[C@@H](C(=O)N2CCCCC2)N(C)C(=O)[C@H](C2CCCCC2)N(C)C(=O)C2(CCCC2)NC(=O)[C@@H]2CCCN2C(=O)[C@H](CCc2ccc(C(F)(F)F)c(Cl)c2)NC(=O)CN(C)C(=O)[C@H](CC2CCCCC2)N(C)C(=O)CN(C)C(=O)CN(C)C1=O ([NMeL]I[Sar][Sar][NMeCha][Sar][hPhe(3-Cl-4-CF3)]P[Ac5c][NMeChg][NMeD]-Piperidide; lactam N-11)
Output: not met

Input: Entry to check: CC[C@H](C)[C@@H]1NC(=O)[C@H](CC(C)C)N(C)C(=O)C[C@@H](C(=O)N2CCOCC2)N(C)C(=O)[C@H](C2CCCC2)N(C)C(=O)C2(CCCC2)NC(=O)[C@@H]2CCCN2C(=O)[C@H](CCc2ccc(C(F)(F)F)c(Cl)c2)NC(=O)CN(C)C(=O)[C@H](CC2CCCCC2)N(C)C(=O)[C@@H]2CCN2C(=O)[C@H](C)N(C)C1=O ([NMeL]I[NMeA][Aze][NMeCha][Sar][hPhe(3-Cl-4-CF3)]P[Ac5c][NMeGly(cPent)][NMeD]-Morpholide; lactam N-11)
Output: met

Input: Same thing, different compound: CCC[C@H]1C(=O)N[C@@H]([C@@H](C)CC)C(=O)N(C)CC(=O)N(C)CC(=O)N(C)[C@@H](CC2CCCCC2)C(=O)N(C)CC(=O)N[C@@H](CCc2ccc(C(F)(F)F)c(Cl)c2)C(=O)N2CCC[C@H]2C(=O)NC2(CCCC2)C(=O)N(C)[C@@H](C2CCCCC2)C(=O)N(C)[C@H](C(=O)N2CCCCC2)CC(=O)N1C ([NMeNva]I[Sar][Sar][NMeCha][Sar][hPhe(3-Cl-4-CF3)]P[Ac5c][NMeChg][NMeD]-Piperidide; lactam N-11)
Output: not met

Input: Note, next up: CC[C@H](C)[C@@H]1NC(=O)C2(CCCC2)N(C)C(=O)C[C@@H](C(=O)N2CCCCC2)N(C)C(=O)[C@H](C2CCCCC2)N(C)C(=O)C2(CCCC2)NC(=O)[C@@H]2CCCN2C(=O)[C@H](CCc2ccc(C(F)(F)F)c(Cl)c2)NC(=O)CN(C)C(=O)[C@H](CC2CCCCC2)N(C)C(=O)CN(C)C(=O)CN(C)C1=O ([NMeAc5c]I[Sar][Sar][NMeCha][Sar][hPhe(3-Cl-4-CF3)]P[Ac5c][NMeChg][NMeD]-Piperidide; lactam N-11)
Output: not met

Input: For CC[C@H](C)[C@@H]1NC(=O)[C@H](CC2CCCCC2)N(C)C(=O)C[C@@H](C(=O)N2CCCCC2)N(C)C(=O)[C@H](C2CCCCC2)N(C)C(=O)C2(CCCC2)NC(=O)[C@@H]2CCCN2C(=O)[C@H](CCc2ccc(C(F)(F)F)c(Cl)c2)NC(=O)CN(C)C(=O)[C@H](CC2CCCCC2)N(C)C(=O)CN(C)C(=O)CN(C)C1=O ([NMeCha]I[Sar][Sar][NMeCha][Sar][hPhe(3-Cl-4-CF3)]P[Ac5c][NMeChg][NMeD]-Piperidide; lactam N-11) then?
Output: not met

Input: Same lookup for CC[C@H](C)[C@@H]1NC(=O)[C@H](CC(C)C)N(C)C(=O)C[C@@H](C(=O)N2CCC2)N(C)C(=O)[C@H](C2CCCC2)N(C)C(=O)C2(CCCC2)NC(=O)[C@@H]2CCCN2C(=O)[C@H](CCc2ccc(C(F)(F)F)c(Cl)c2)NC(=O)CN(C)C(=O)[C@H](CC2CCCCC2)N(C)C(=O)[C@@H]2CCN2C(=O)[C@H](C)N(C)C1=O ([NMeL]I[NMeA][Aze][NMeCha][Sar][hPhe(3-Cl-4-CF3)]P[Ac5c][NMeGly(cPent)][NMeD]-{Azetidin(1-yl)}; lactam N-11) , please.
Output: met

Input: Similarly, CC[C@H](C)[C@@H]1NC(=O)[C@H](CCOC)N(C)C(=O)C[C@@H](C(=O)N2CCCCC2)N(C)C(=O)[C@H](C2CCCCC2)N(C)C(=O)C2(CCCC2)NC(=O)[C@@H]2CCCN2C(=O)[C@H](CCc2ccc(C(F)(F)F)c(Cl)c2)NC(=O)CN(C)C(=O)[C@H](CC2CCCCC2)N(C)C(=O)CN(C)C(=O)CN(C)C1=O ([NMehSer](Me)I[Sar][Sar][NMeCha][Sar][hPhe(3-Cl-4-CF3)]P[Ac5c][NMeChg][NMeD]-Piperidide; lactam N-11) ?
Output: met
